Test system: MS2 coat protein
procedure-summary: apparent KD of MS2 coat protein, switch ON state; designed switch direction (-1 OFF switch, 1 ON switch): 1; higher = weaker reporter binding
measurement-context: FMN input: 0 or 200 uM; Eterna round: R93 (includes R88 designs)
endpoint: apparent KD of MS2 coat protein (nM)
Give the value, in units of nM, as a plain number.

>>> df
                            record_sequence   measured_target                         endpoint  measured_number
0  GGGAGACAUGAGGAUCACCCAUGUGAAAACGUGCGAGGAUAUGAAUGGAAACCAUACUGUUCAGAAGGCGUUUGUC [Titus Petronius Secundus]  MS2 coat protein  apparent KD of MS2 coat protein             46.5
1  AAUAAAAAUAGUCAGGAUAUGAGAAAUAAGACAUGAGGAUCACCCAUGUAAUAAGUAAAAGUAAAUUAGAAGGGACAGGGUGAAA [JR_SS002_Sub019]  MS2 coat protein  apparent KD of MS2 coat protein              200
2  AAGAAACAUGAGGAUCACCCAUGUGAGAAUAUGGGAGGAUAUACAAGGACGUAAGUCAAGGUAGAAGGCCUAAGAA [Mat - Same State 1 - Meechl mod - D139]  MS2 coat protein  apparent KD of MS2 coat protein             25.8
3  AACAAUCUAUCUGAGGAUAUCAUGUGAAAGACAUGAGGAUCACCCAUGUCGCAGGAAACUGCUCAUGAGAAGGCAGAUAGAUUGA [SS2: 1127]  MS2 coat protein  apparent KD of MS2 coat protein             15.6
4  AAUAAACAUGAGGAUCACCCAUGUGGUGGCCCAUGAGGAUAUCCAUGUACAUUGUACACAGGAGAAGGCAUAGCCA [Tioredes]  MS2 coat protein  apparent KD of MS2 coat protein              119
5  GUAAGACAUGAGGAUCACCCAUGUAUGCGUCAGCAAGGAUAUGGGAAUAAAAGACAGAAACCAGAAGGUGCUGUUG [Enqudi]  MS2 coat protein  apparent KD of MS2 coat protein             26.1

Proceeding to the next sequence to report its apparent KD of MS2 coat protein.
Please report the recorded apparent KD of MS2 coat protein for GACAAACAUGAGGAUCACCCAUGUAGAAAUAUGGGAGGAUAUACAAAGACGAAAGUCAAAGUAGAAGGCCUAAAAG [77%, Mat - Mod of Eli - With 1 more C's] . 21.7

###

System: MS2 coat protein
procedure-summary: apparent KD of MS2 coat protein; designed switch direction (-1 OFF switch, 1 ON switch): -1; higher = weaker reporter binding
measurement-context: input ligand: FMN 200 uM
endpoint: apparent KD of MS2 coat protein (nM)
Write the value in nM as a bare number.

Use these answered entries as a reference point.
record-sequence	measured-target	apparent KD of MS2 coat protein (nM)
AGCCCUGCAGGAUAUGCCCGGGAUAACAUGAGGAUCACCCAUGUGACUGAUUGUUAUUCUGCAGAAGGGUAUGGGA [JL-EX5-4.16 ViennaUCT mod] (Eterna round: R97, puzzle: Exclusion 5)	MS2 coat protein	404
ACAUGAGGAUCACCCAUGUGAAAAGAAUGGCUGACACAGAGAUAGGAUAUAGGUGCAUAUCUAACCUAGAAGGGUCAUGACUGG [Deportation 77 - Jieux - Exclusion NG 3] (Eterna round: R96, puzzle: Exclusion NG 3)	MS2 coat protein	23.5
UGUUGUUCAGGAUAUGAUGUAUAAUACAUGAGGAUCACCCAUGUAGAUCCUGAAUUAACAUCAGAAGGGAAUGUUG [salish99_ex5_r4_102] (Eterna round: R97, puzzle: Exclusion 5)	MS2 coat protein	19.4

Recorded apparent KD of MS2 coat protein of AAUAACAAGCCGAUCCUCUACAUGAGGAUCACCCAUGUGUUCGUCUUGUAAAGUACUAUCACGAAAGUGAUAGUACA (Eterna round: R97, puzzle: Sensor, turn-off variant 1) , please. 209

Fill blank: measured apparent KD of MS2 coat protein of the sequence UGUUGUUACGCAGGAUAUGUAUGAGGAUCACCCAUAAGAGUUGAUGUACCAUGAGGAUCACCCAUGUAGAAGGGCGGGUUAACA [pwkr exNG2 2xF5 1xFMN.9] (Eterna round: R96, puzzle: Exclusion NG 2) is ____. 365

What does the record list as apparent KD of MS2 coat protein for AUAAGGUGAGGAUAUCCACGACCCUACAUGAGGAUCACCCAUGUAUACAGUACGUGUAGAGGAGAAGGUACAUGUC [Eternabot (L2) Solution 78] (Eterna round: R97, puzzle: Exclusion 5) ? 28.3

I'd like to know its apparent KD of MS2 coat protein. The sequence in question is ACUUAUUGAGGAUAUACAGAUUAUUACAUGAGGAUCACCCAUGUUCUUCAAUGUAUAUAUGUAGAAGGCAGAGGAA [JL-ex5-4.24 Malcolm mod] (Eterna round: R97, puzzle: Exclusion 5) 87.6

# get_value(readout='apparent KD of MS2 coat protein', item= CCCUCGGGAGGAUAUGGGUGUUUUUACAUGAGGAUCACCCAUGUGGAGUAGCAUGUGGGUCCAGAAGGCCCAAGGG [-27.5, -25.8 kcal, 22% A] (Eterna round: R97, puzzle: Exclusion 5) ) 873

Need apparent KD of MS2 coat protein, item GCGGGCCCGGGAGGAUAUACAUGAGGAUCACCCAUGUGGGCCCGGGCCCGCGGGCCCGGGCCCGUGUAGAAGGCCCGGGCCCGC [-64.9, -63.3 kcal, A 14%] (Eterna round: R96, puzzle: Exclusion NG 2) 28

Sample CAGUACUGAGGAUAUACAUGAGGAUCACCCAUGUGAGAGAUACUAAUGAGGUCGAUUAGUAGAAGGCAGUACUG [Mat X3R4 m4] (Eterna round: R97, puzzle: Exclusion 3) — what was its apparent KD of MS2 coat protein? 240

Need apparent KD of MS2 coat protein of UAGGACAAAGGAUAUACGUGUUAUGAUCGGGAUAACAAAAGACAUGAGGAUCACCCAUGUAGAAGGUUGCUUGA [EX2 B.25] (Eterna round: R97, puzzle: Exclusion 2) , thanks. 26.2

Report apparent KD of MS2 coat protein for UUAUUCAGAGGAUAUGCGCAUAGAUAAGACUUUUUUUCUUAACAUGAGGAUCACCCAUGUAGAAGGCUGUAAUA [Ex2 #57] (Eterna round: R97, puzzle: Exclusion 2) please. 19.8

Need apparent KD of MS2 coat protein, item UUGUGCACGCUGCGGUCCUACAUGAGGAUCACCCAUGUGGUCUGGUGGCGUGGGUCACCGGACUUGGCUCGUCUUGU [salish99_S_TOV1_R5_060] (Eterna round: R97, puzzle: Sensor, turn-off variant 1) 36.2

Reported apparent KD of MS2 coat protein for AUCCGACAUGAGGAUCACCCAUGUCAGGAUAUGGACUGACAUCGAAAGGAUGGAAGAACCAGAAGGGACUGGGC [Betiqu] (Eterna round: R96, puzzle: Exclusion 1) : what is it? 71.7

Give its apparent KD of MS2 coat protein value. Item: GACAGGGCAGGAUAUCGAGAUCCUCACAUGAGGAUCACCCAUGUUCAGUCGAAAGACUGACGAGAAGGGCCGUGUC [Omei Ex5 E3] (Eterna round: R97, puzzle: Exclusion 5) 36.8

Entry CGCUAGUCAGGAUAUACGAACAUGUCAAAAGACGUGAAGGGACAUGAGGAUCACCCAUGUAGAAGGGACUAGCA [salish99_ex2_r3_014] (Eterna round: R96, puzzle: Exclusion 2) has what apparent KD of MS2 coat protein? 165

For the sequence CCAUUCAGAGGAUAUGCGCAUAAAUAAGACUUUUUUUUUUAACAUGAGGAUCACCCAUGUAGAAGGCUGUAACC [Ex2 #46] (Eterna round: R97, puzzle: Exclusion 2) , what apparent KD of MS2 coat protein is on record? 24.6

Quick one: apparent KD of MS2 coat protein of GUUUUCAGACGGAGAUCCUACAUGAGGAUCACCCAUGUCUCACAAGCUAAUUGCUCGUCUUAUUCUCCUCUGUUCUC [Elimod 40 - Jieux - Sensor, turn-off variant 1] (Eterna round: R97, puzzle: Sensor, turn-off variant 1) ? 21.8

###

Tested on: MS2 coat protein
procedure-summary: apparent KD of MS2 coat protein; higher = weaker reporter binding
measurement-context: Eterna round: R107; input ligand: arginine 13.2 mM
endpoint: apparent KD of MS2 coat protein (nM)
I only need the number, in nM, no unit after it.

record-sequence	measured-number
CGAAUAUAGGCUACGUGUCAUUGAGGCGAUACCAGAUUAUGCCAGAUCCCUUGGCAGCGCCAAACAUGAGGAUCACCCAUGUUCA [theeternabot_exclusion_MS2_Theo_A_38]	23.5
GGCCGAUGGUGCGAUACCAGCUUGAGUGUACUGGCCAGGUACAUGAGGAUCACCCAUGUAAGCCCUUGGCAGCGCGUCAAAGGCC [#1 Exclusion - Theophylline B Attempt #20 (HarryS)]	7.09
AUUCAUAACUGAAGGAGCGUGAUAUAAAUUUUUACAUGAGGAUCACCCAUGUUUCAUAGAUCACAGGUAGGUCGCAGAUUCUCAU [JR_SSArginiB_Sub011]	36.8
AUACAUGAGGAUCACCCAUGUGAUGGCCGGCGAGGACCGGUACGGCCGCCACUCGUGAUCCGUCCUGAAAGCAAAGCUUCCAGCA [Terion]	37.4

Query (sequence): ACGUCCGGAUUGAUCGUGGGCAUGGUCGAUACCAGUAUUUUAAUCUACCCUUGGCAGCGACAUGAGGAUCACCCAUGUGCGAUGA [XTheo A #19] ; field requested: apparent KD of MS2 coat protein 16.1

// apparent KD of MS2 coat protein lookup, key: "GGAUAGGACACGGCCGCCACUGCGGCUAGAUACUAGCACAUUUCCUCACAUGAGGAUCACCCAUGUAGGACCGGGUGUCCUAUCG" 57.6

For AACGAGUGGCGGCCAUUGGGUGAUCCUCUACGAGGACCGGUACGGCCGCCACUCGAUAACAUGAGGAUCACCCAUGUGCCGAUAA [|T'-M'-Trp-Ms2|_Design10b] , what is its reported apparent KD of MS2 coat protein? 42.3

// apparent KD of MS2 coat protein lookup, key: GGGACAUGAGGAUCACCCAUGUACCGGUCCCGAGGACCGGUACGGCCGCCACUCGAUGACCUCAUAGUCUGCCUGAGCAGCAGAC [Abebeti] 49.1

Any idea what apparent KD of MS2 coat protein was measured for UUGGGUUUGCGAAGGAGCGGGAAAUAUAUAUAUAUAAUCCUAACAUGAGGAUCACCCAUGUCCCAGGUAGGUCGCGCAGGUUUGG [12.L] ? 58.1

What value of measured apparent KD of MS2 coat protein is listed for CGGGUUAGGGCGGCCGCCACUGUGGCUACGGUACAUGAGGAUCACCCAUGUUUGUGGUUGAUCUACAGGACCGGGCCCUGACACG [Geusrean] ? 440

State the recorded apparent KD of MS2 coat protein for this entry: AAUGGUCGUACUGGAAUGGUGAUCCUCAAACGAGGACCGGUACGGCCGCCACUCGAUAACAUGAGGAUCACCCAUGUAAUAAUAA [|T'-M'-Trp-Ms2|_Design13b] 26

Given the sequence AAGACUGGACAUAAGUCCAGUCAACCUGAAGGAGCGGGUGGGUGCCCAGGUAGGUCGCGGGAACAUGAGGAUCACCCAUGUAUAA [ArgAS 5 #BothOrNeither #OpenEnded] , what is its reported apparent KD of MS2 coat protein? 17.4

Each recorded value in this set is attributed to the supplement of paper PMC9170038.
